- Target System: T1, P1180_AMBTR (Amblyomma triste, UniProt A0A023G6B6 26-116);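 note: biolayer interferometry on an Octet system: chemokines at several doses tested against tick chemokine-binding proteins, association, equilibrium and dissociation curves fitted to derive Kd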
- T1 sequence: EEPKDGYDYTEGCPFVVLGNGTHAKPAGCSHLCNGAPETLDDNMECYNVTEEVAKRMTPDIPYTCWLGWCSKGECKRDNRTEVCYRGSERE
- Measurement Description: BLI
Measured Endpoint: log10(Kd) (log10 of the value in nM)

{"columns": ["Binder", "log10(Kd)"],
 "data": [
  ["CCL14_HUMAN (ligand) TESSSRGPYHPSECCFTYTTYKIPRQRIMDYYETNSQCSKPGIVFITKRGHSVCTNPSDKWVQDYIKDMKEN", 0.64],
  ["CCL4_HUMAN (ligand) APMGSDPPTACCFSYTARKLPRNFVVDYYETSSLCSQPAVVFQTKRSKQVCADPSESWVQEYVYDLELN", 1.82],
  ["CCL4L1_HUMAN (ligand) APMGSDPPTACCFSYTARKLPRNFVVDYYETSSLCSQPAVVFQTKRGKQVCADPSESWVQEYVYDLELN", 1.30],
  ["CCL3L1_HUMAN (ligand) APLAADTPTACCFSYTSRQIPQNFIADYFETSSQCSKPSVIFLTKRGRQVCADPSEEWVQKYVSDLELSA", 0.34],
  ["CCL18_HUMAN (ligand) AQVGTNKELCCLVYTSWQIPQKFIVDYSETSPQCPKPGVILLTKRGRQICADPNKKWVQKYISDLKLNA", 0.76],
  ["CCL3_HUMAN (ligand) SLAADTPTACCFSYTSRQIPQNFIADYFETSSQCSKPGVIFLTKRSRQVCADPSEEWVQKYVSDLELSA", 0.04],
  ["CCL8_HUMAN (ligand, UniProt P80075 24-99, looked up) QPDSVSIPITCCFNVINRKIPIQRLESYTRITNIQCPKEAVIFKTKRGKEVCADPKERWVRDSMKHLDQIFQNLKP", 0.56]
]}
